Test system: two spotted mite (Tetranychus urticae Koch)
Test: Mite Foliage Spray Test
Type: in vivo
Design: key: A: Excellent control; B: Partial control; C: No control
Conditions: 500 ppm foliage spray, six days
Description: Selected species of the new compounds were evaluated to determine their pesticidal activity against mites and certain insects, including anaphid, a caterpillar, a beetle and a fly. Suspensions of the test compounds were prepared by dissolving one gram of compound in 50 milliliters of acetone in which had been dissolved 0.1 gram (10 percent of the weight of compound) of an alkylphenoxy polyethoxyethanol surfactant, as an emulsifying or dispersing agent. […]
MEASURED ENDPOINT: Mite pesticidal activity rating

Reference set (4 entries):
>>> experimental_value("CN=C1SC(=NOC(=O)N(C)SN(C)C(=O)ON=C2SC(=NC)SC2(C)C)C(C)(C)S1 [LXXVIII]")
"A"
>>> experimental_value("CCCCN=C1SC(=NOC(=O)NC)C(C)(C)S1 [LII]")
"C"
>>> experimental_value("CC(C)N=C1SC(=NOC(=O)N(C)SC(Cl)(Cl)Cl)C(C)(C)S1 [XLVIII]")
"A"
>>> experimental_value("CN(SC(Cl)(Cl)Cl)C(=O)ON=C1SC(=C(C#N)C#N)SC1(C)C [LXIII]")
"C"

Task: Consider the compound shown here: CN(C)N=C1SC(=NOC(=O)N(C)SSC(C)(C)C)C(C)(C)S1 [XLII] What is its recorded Mite pesticidal activity rating?
Result: A

Task: Likewise for CC(C)C(=O)C(C)(C)SSN(C)C(=O)ON=C1SC(=C(C#N)C#N)SC1(C)C [LXXV] ?
Result: A

Task: Likewise for CN(SC(Cl)(Cl)Cl)C(=O)ON=C1SC(=NC(C)(C)C)SC1(C)C [LI] ?
Result: B

Task: Likewise for CN(SN1CCOCC1)C(=O)ON=C1SC(=C(C#N)C#N)SC1(C)C [LXXIV] ?
Result: C

Task: Likewise for CN(C)N=C1SC(=NOC(=O)N(C)SC(Cl)(Cl)Cl)C(C)(C)S1 [LVI] ?
Result: A

Task: Likewise for CNC(=O)ON=C1SC(=NS(C)(=O)=O)SC1(C)C [LVII] ?
Result: C
